# key: entry, value: normalized maximum binding nm shift
- ASSAY TARGET: T1, Human VSIG4-L-Fc (human)
- T1 construct: also called hVSIG4-L-Fc; hVSIG4-L
- T1 sequence (chain, as listed by the source limits assumed): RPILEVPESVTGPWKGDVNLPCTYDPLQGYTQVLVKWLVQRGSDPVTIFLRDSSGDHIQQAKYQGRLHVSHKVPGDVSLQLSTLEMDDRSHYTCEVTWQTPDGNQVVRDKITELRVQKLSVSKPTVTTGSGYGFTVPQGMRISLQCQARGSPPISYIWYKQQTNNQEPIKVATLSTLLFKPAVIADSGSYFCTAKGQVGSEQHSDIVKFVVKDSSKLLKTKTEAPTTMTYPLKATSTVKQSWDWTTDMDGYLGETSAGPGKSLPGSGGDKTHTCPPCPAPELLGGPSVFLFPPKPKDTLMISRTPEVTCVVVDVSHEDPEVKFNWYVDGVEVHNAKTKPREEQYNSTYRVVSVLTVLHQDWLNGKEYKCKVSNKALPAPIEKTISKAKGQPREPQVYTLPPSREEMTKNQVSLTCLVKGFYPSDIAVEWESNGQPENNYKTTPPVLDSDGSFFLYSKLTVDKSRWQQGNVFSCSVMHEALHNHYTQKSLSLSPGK
- ASSAY TEXT: BLI binning on hVSIG4-L-Fc, competitor 15A06 first;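 note: normalized to binding of second antibody without first competitor antibody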
OBSERVABLE: normalized maximum binding nm shift (normalized)

BINDER	UNIT TEXT	ENDPOINT VALUE
14C05 mouse/human chimeric IgG4 (S228P) kappa (antibody, V domains shown) VH: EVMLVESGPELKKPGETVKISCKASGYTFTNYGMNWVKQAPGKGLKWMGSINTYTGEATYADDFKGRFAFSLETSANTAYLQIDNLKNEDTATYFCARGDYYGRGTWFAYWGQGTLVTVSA VL: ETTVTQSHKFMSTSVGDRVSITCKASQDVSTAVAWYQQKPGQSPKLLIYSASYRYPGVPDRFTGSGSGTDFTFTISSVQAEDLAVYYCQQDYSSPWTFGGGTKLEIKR	normalized	0.68
15C04 mouse/human chimeric IgG4 (S228P) kappa (antibody, V domains shown) VH: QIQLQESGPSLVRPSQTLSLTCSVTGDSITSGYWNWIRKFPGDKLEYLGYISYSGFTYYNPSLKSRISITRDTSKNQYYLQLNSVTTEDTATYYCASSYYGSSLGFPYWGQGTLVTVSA VL: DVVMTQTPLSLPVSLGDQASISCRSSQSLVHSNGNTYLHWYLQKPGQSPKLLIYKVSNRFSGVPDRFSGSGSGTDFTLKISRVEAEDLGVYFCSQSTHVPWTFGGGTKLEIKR	normalized	0.08
14D12 mouse/human chimeric IgG4 (S228P) kappa (antibody, V domains shown) VH: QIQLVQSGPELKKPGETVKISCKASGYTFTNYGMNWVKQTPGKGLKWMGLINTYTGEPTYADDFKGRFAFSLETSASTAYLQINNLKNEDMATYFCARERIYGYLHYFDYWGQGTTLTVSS VL: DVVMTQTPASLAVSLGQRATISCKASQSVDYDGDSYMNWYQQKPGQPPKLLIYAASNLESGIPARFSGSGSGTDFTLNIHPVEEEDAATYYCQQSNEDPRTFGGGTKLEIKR	normalized	0.75
